Test: changes in parasitized red cell lysis, either direction – P. falciparum Indochina, OD700, 3 h, PSAC antagonist project, primary screen (AID 1156)
Conditions: P. falciparum-infected erythrocytes, osmotic lysis, higher = more signal, called active from +8 up or from −8 down
recorded endpoint: z-score
Enter the number alone.

C#CCOc1ccc(C[C@@H](C(=O)OC)N(CC#C)[C@@H](/C=C/C2CC2)[C@H](O)Cc2ccccc2)cc1 = -0.173
COC(=O)C(CC#Cc1ccc2c(c1)[C@]1(C(=O)N2)[C@H](c2ccccc2OCCO)N2[C@H](c3ccccc3)[C@H](c3ccccc3)OC(=O)[C@H]2[C@@H]1C(N)=O)C(=O)OC = 1.44
COCC(=C=CC[C@H](O)c1cccc(OCCO)c1)CCO = 0.104
O=C1[C@H]2C=C(Br)[C@H](C[C@@H]2OCCCCCCO)[C@@]12CO2 = 1.2
CC(C)[C@@H](C(=O)O)n1cc(C2(O)CCCCC2)nn1 = -2.15

Given the compound COc1ccc([C@H]2C[C@H]3C(Br)=C[C@@]2(CO)C(=O)[C@]32CO2)cc1 , what is its reported z-score?
-0.231

Consider the compound COC(=O)[C@]1(Cc2ccccc2)N=C(c2ccc(OCCCO)cc2)O[C@@H]1c1ccccc1N=[N+]=[N-] and give its measured z-score.
0.883

Look at this compound and give its reported z-score. C=CCN1C(=O)[C@]2(O[C@H](CCO)[C@@H]([Si](C)(C)c3ccc(OC)cc3)[C@@H]2C)c2cc(N(C=O)c3ccccc3)ccc21
-0.452

Would you mind telling me what z-score value was observed for [N-]=[N+]=Nc1ccccc1C[C@]1(C(=O)NCC(O)CO)N=C(c2ccc(OCCCO)cc2)O[C@H]1c1ccccc1 (some centres undefined) ?
1.64
